All values here come from PubChem BioAssay (NCI).

# method-notes: NCI Yeast Anticancer Drug Screen. Data for the cln2 rad14 strain (AID 165);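 note: 0% = growth equal to vehicle treated cultures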
# experimental-context: S. cerevisiae cln2 rad14 strain, at 50.0 µM, active compounds read high
About 79,000 compounds went through this panel and 15% of them were active in at least one assay; those are over-represented in the sample as a whole.
measured-endpoint: growth inhibition (%)
Your answer is read as %, so omit the unit and give the number.

Form field: reported growth inhibition of O=C(O)/C=C/c1ccncc1
3.75

Further, for Nc1ncc2c(n1)-c1ccccc1OC2N1CCOCC1 (stereo unspecified) ?
2

Further, for CCOC(=O)CC(=O)c1ccc(Cl)cc1 ?
6.95

Further, for CC(C)OC(=O)NC1CCC2CCCCC2C1 (stereo unspecified) ?
-19.9

Further, for Cc1ccc2oc(=O)c3c(O)c4cccc(OC5OC(C)C6O[C@@H](c7ccccc7)OC6C5OC5OC(C)C(O)C(O)C5O)c4c4oc(=O)c1c2c34 (stereo partly specified) ?
83.6

Further, for CC(=O)N1C(=O)C(=O)c2cc(Cl)ccc21 ?
-2.1

* * *

# method-notes: NCI Yeast Anticancer Drug Screen. Data for the mlh1 rad18 strain (AID 175)
# experimental-context: S. cerevisiae mlh1 rad18 strain growth inhibition; at 50.0 µM; active compounds read high
About 79,000 compounds went through this panel and 15% of them were active in at least one assay; those are over-represented in the sample as a whole. Activity calls are given as the source filed them. Cut-off read from the data, not from the text of the source: active = growth inhibition above about 70%; inactive = the rest.
measured-endpoint: growth inhibition

Form field: reported growth inhibition of O=S1CCCO1 (stereo not given)
0.3% (inactive)

Further, for COc1ccc(Cl)cc1NC(=O)Nc1cc(C)ccc1Cl ?
9.9% (inactive)

Further, for O=CNNC(=O)CN1C(=O)c2ccccc2C1=O ?
-6.65% (inactive)

Further, for CC(C)CCC[C@@H](C)[C@H]1CC[C@@]2(C)C3=C(C(=O)C[C@]12C)[C@@]1(C)CC[C@H](O)C(C)(C)[C@@H]1CC3=O ?
10.3% (inactive)

Further, for O=C(Nc1cccc([N+](=O)[O-])c1)Oc1ccc(-c2ccccc2)cc1 ?
25.4% (inactive)

Further, for COc1ccc(C(CC(=O)O)CC(=O)O)cc1[N+](=O)[O-] ?
10.8% (inactive)

Further, for CC1CC[C@@]23CCC4(C)[C@@](C=CC5[C@@]6(C)CCC(=O)C(C)(C)C6CC[C@]54C)(OC2=O)[C@@H]3[C@H]1C (stereo not given in full) ?
-8.15% (inactive)

Further, for CCN(CC)CCNC(=O)c1ccccc1NC(=O)C(=O)Nc1ccccc1C(=O)NCCN(CC)CC ?
-41.6% (inactive)

Further, for COCCCC(NC(=O)C(CC(C)C)NC(=O)OCc1ccc(OC)cc1)C(N)=O (stereo not given) ?
4.2% (inactive)

Further, for NC(C(=O)O)C(SCc1ccccc1)c1cccc(O)c1 (stereo not given) ?
-0.7% (inactive)

Further, for CC(C)CC(NC(=O)OC(C)(C)C)C(=O)NC(Cc1c[nH]c2ccccc12)C(=O)NN (stereo not given) ?
27.7% (inactive)

Further, for CC(=O)Nc1nc(Cl)c2ncn(C3CCCO3)c2n1 (stereo not given) ?
2.25% (inactive)

Further, for Oc1ccccc1/C=N\c1nccs1 ?
13.2% (inactive)

Further, for O=Cc1cccc2ccc3cccc(C(=O)O)c3c12 ?
-8.7% (inactive)

Further, for CCCCCCCCCCCCCCOc1ccc(OCCCCCCCCC)cc1 ?
-13.9% (inactive)

Further, for CCC1(CCC#N)CCC(N)=CC1=O (stereo not given) ?
-0.75% (inactive)

Further, for O=C(O)CCC(=O)Oc1ccccc1 ?
44.5% (inactive)

Further, for COc1ccc2c(=O)c(O)c(-c3ccccc3)oc2c1 ?
8.25% (inactive)

Further, for COc1ccc(/C(C)=N/OC(=O)c2sc3ccccc3c2Cl)cc1CN1CCOCC1 ?
-21.6% (inactive)

Further, for O=C1C=C2SCCN2C(=O)C1 ?
14.9% (inactive)

Further, for Cc1ccc(C(N)=O)cc1 ?
42.1% (inactive)

Further, for C1C2CC3CC1CC(c1nn4c(C56CC7CC(CC(C7)C5)C6)nnc4s1)(C2)C3 ?
-17.9% (inactive)

Further, for O=C1C=C(c2ccccc2)CC1 ?
0.95% (inactive)

Further, for [N-]=[N+]=C1C(=O)NC(=O)N2C3OC(CO[C@@H]12)C(O)C3O (stereo not given in full) ?
-39% (inactive)

Further, for Cc1ccc2c(=O)[nH]cnc2c1 ?
-2.15% (inactive)

* * *

# method-notes: NCI Yeast Anticancer Drug Screen. Data for the mec2-1 strain (AID 157)
# experimental-context: S. cerevisiae mec2-1 strain, at 50.0 µM
Compounds without any hit were thinned out: in the full panel of roughly 79,000, 15% have a hit. The source made the active and inactive calls. No stated cut-off is given here; in the data, active means growth inhibition above about 70%; inactive means the rest.
Just give me one of these, please: active, inactive

Kindly provide the recorded test outcome for the following compound: S=C(Nc1ccc2c(c1)Cc1ccccc1-2)Nc1ccc2c(c1)Cc1ccccc1-2
inactive

Further, for CCOC(=O)c1c(-c2ccccc2)csc1NC(=O)CN1CCCCC1 ?
inactive

Further, for CSc1c(C#N)c(N)nc2c(N=Nc3ccc(Cl)cc3)c(N)nn12 ?
inactive

Further, for c1cc2c(cc1CC1CO1)OCO2 (stereo not drawn) ?
inactive

Further, for CC1(C)c2ccccc2C(=O)C12CCC(=O)CC2 ?
inactive

Further, for Cc1c(/C=N/O)nc2ccccc2c1C(=O)O ?
inactive

Further, for CCc1cccc(CC)c1NC(=O)c1ccccc1Br ?
inactive

Further, for C[n+]1c2ccccc2c(CNC(CCC(N)=O)C(=O)O)c2ccccc21 (stereo not drawn) ?
active

Further, for O=C1CN(Cc2ccccc2)CCO1 ?
inactive

Further, for C/C(CC(C)(C)C)=N/O ?
inactive

Further, for CNCSc1ccccc1 ?
inactive

Further, for CC(c1ccccc1)C(OCc1ccccc1)OCc1ccccc1 (stereo not drawn) ?
inactive

Further, for CC(C)(NC(=O)c1cc(Cl)c2ccccc2c1O)C(=O)O ?
inactive

* * *

For each entry below, report its growth inhibition value.
# method-notes: NCI Yeast Anticancer Drug Screen. Data for the mec2-1 strain (AID 157)
# experimental-context: S. cerevisiae mec2-1 strain, at 50.0 µM, active compounds read high
Compounds without any hit were thinned out: in the full panel of roughly 79,000, 15% have a hit. Activity calls are given as the source filed them. Rule as the data show it: active = growth inhibition above about 70%; inactive = the rest.

Form field: reported growth inhibition of CCn1c2ccc(C(=O)CCCN(C)C)cc2c2cc(C(=O)CCCN(C)C)ccc21
-33.3% (inactive)

Further, for Cc1cc(S(=O)(=O)Nc2nc(N)nc(N3CCOCC3)n2)c(SCC(=O)O)cc1Cl ?
19.4% (inactive)

Further, for CC(C)(C)c1ccc(/C=N/NC(=O)c2cccnc2)cc1 ?
8.45% (inactive)

Further, for S=c1nn[nH]n1-c1cccc2ccccc12 ?
1.9% (inactive)

Further, for O=C(Nc1ccc(F)cc1)Nc1ccc(I)cc1 ?
1.15% (inactive)

Further, for c1ccc(CN2CCCCC2)nc1 ?
-20.7% (inactive)

Further, for CCOC(=O)C(CCCOC1CCCCO1)(C(=O)CC)c1ccccc1 (configuration not stated) (tested in a mixture with another compound) ?
-7.05% (inactive)

Further, for O=C(NSNc1ccccc1)c1ccccc1 ?
-3% (inactive)

Further, for N#Cc1cccc(-c2ccc(-c3ccccc3)o2)c1 ?
27.4% (inactive)

Further, for CNc1ccccc1C(N)=S ?
2.5% (inactive)

Further, for O=[N+]([O-])c1ccc(N=Cc2ccccc2O)cc1 ?
-8.05% (inactive)

Further, for C=CCNC(=S)Nc1cc(Cl)ccc1OC ?
8.45% (inactive)

* * *

# method-notes: NCI Yeast Anticancer Drug Screen. Data for the cln2 rad14 strain (AID 165);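 note: 0% = growth equal to vehicle treated cultures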
# experimental-context: S. cerevisiae cln2 rad14 strain, at 50.0 µM, active compounds read high
The panel holds about 79,000 compounds, 15% with a hit somewhere; the sample as a whole holds those more often.
For each entry below, report its growth inhibition value.
Your answer is read as %, so omit the unit and give the number.

Form field: reported growth inhibition of COC(=O)c1ccc(OC(=O)Nc2ccc(C)cc2)cc1
-9.4

Further, for CCCNC(=S)/N=C/c1c(O)cc(C)oc1=O ?
-0.3

Further, for Nc1ccc(S(=O)(=O)N(CCO)CCO)cc1 ?
-6.95

Further, for O=S(=O)(c1ccccc1)c1ccc(O)cc1 ?
-29.8

Further, for O=S(=O)(O)CCc1ccccc1 ?
-7.5

Further, for COc1ccc2ccccc2c1C1OC(=O)c2ccccc21 (stereo not given) ?
33.4

Further, for Nc1ccc(Cl)c(Cl)c1Cl ?
31

Further, for c1cc2nc(c1)CSCCCCCCCCSC2 ?
-10.1

Further, for CC(C)(C)C(=O)[CH-]C(=O)C(F)(F)F.CC(C)(C)C(=O)[CH-]C(=O)C(F)(F)F.CC(C)(C)C(=O)[CH-]C(=O)C(F)(F)F.[Ru+3] ?
-1.35

Further, for C=CCC1(C)C=C(C)C(=O)C(C)=C1 ?
2.55

Further, for CC(=O)OC1c2ccccc2Cc2ccccc21 ?
16.6

Further, for Nc1cc2c(C3OC(CO)C(O)C3O)[nH]nc2c(=S)[nH]1 (stereo not given) ?
20.4

Further, for CCOC(OCC)/C(C)=N/N(C)C ?
7.3

Further, for Clc1ccc2ncccc2c1 ?
-24.1

Further, for COC(=O)c1nc(N)nc(C(=O)OC)c1C(=O)c1cccnc1 ?
-15.3

Further, for COc1cc(-c2[nH]ncc2CCCC(=O)Nc2ccccc2[N+](=O)[O-])ccc1O ?
7.8

Further, for COC1C=CC2OC(c3ccccc3)OCC2O1 (stereo not given) ?
-35

Further, for c1ccc2c(c1)SCCc1nncn1-2 ?
-24.4

Further, for O=C(Nc1cccc(Cl)c1Cl)c1cc(/C=C/c2ccc([N+](=O)[O-])cc2)on1 ?
9.1

Further, for BrCCC1(CCBr)CCCCC1 ?
24.9

Further, for O=[N+]([O-])C(C(Cl)=C(Cl)Cl)=C(N1CCCCC1)N1CCCCC1 ?
-22.1

Further, for N#CCC(=O)NCCc1c[nH]c2ccccc12 ?
-32.8

Further, for CCN(CC)CCCNc1c2ccccc2nc2ccccc12 ?
51.6

Further, for O=C(O)C(=O)O.[NH-]CC(O)CN(CC(O)CO)c1ccccc1.[Pt+2] (stereo not given) ?
21.7

Further, for CC(=O)C1=CN(C)c2ccccc2S1 ?
-2.55

Further, for CCCCOC(=O)C1(C(=O)OCCCC)CC1 ?
1.6

Further, for Nc1cccc(-c2nc3ccccc3[nH]2)c1 ?
-9.2

Further, for CNC1C(=O)C(C)C(O)(C(CC(C)C(O)/C=C/C=C/CNC(=O)C(C)(C)C(O)\C(C)=C/C=C\C=C\Cc2cnc(C)o2)OC)C12C(=O)OC2COC (stereo not given) (tested in a mixture with another compound) ?
2.95

Further, for CCOC(=O)CC1c2ccc(O)cc2OC(=O)C1c1ccc(N)cc1 (stereo not given) ?
-4.6

Further, for N#CC1(C#N)CC1(C#N)C#N ?
27.1

Further, for NS(=O)(=O)c1ccc(C(=O)O)s1 ?
-11

Further, for O=C(O)CCC(=O)Oc1ccccc1 ?
31.6

Further, for O=C(O)C1CCC(C(=O)O)CC1.[NH-]C1CCCCC1[NH-].[Pt+2] (stereo not given) ?
6.9

Further, for O=S(=O)(N=N/C=C1\C=CC=CN1O)c1cccs1 ?
-1.15

Further, for C=CCOc1cc2c(cc1C(C)c1ccc(OC)cc1)OCO2 (stereo not given) ?
-10.3

Further, for CC(=O)N(C)c1ccc(O)cc1 ?
-18.6

Further, for CCN(CC)CCCC(C)n1c(SC)nc2cc(Cl)ccc21 (stereo not given) ?
-32.6

Further, for COc1cc(C2=N/C(=C\c3cc(Br)cc(Br)c3O)C(=O)O2)cc(OC)c1OC ?
98.7

Further, for COC/N=C(\NC#N)NCOC ?
14

Further, for C/C(CC(=O)Nc1ccc(C)c(C)c1)=N\N(c1ccccc1)c1ccccc1 ?
-3.4

Further, for O=C1C=C(c2ccccc2)C(O)(c2ccccc2)/C1=C/C=C/c1ccccc1 (stereo not given) ?
-12.2

Further, for C[N+]1(C(CO)Cc2c[nH]c3ccccc23)Cc2ccccc2C1 (stereo not given) ?
-8.35

Further, for COc1cc2c3c(c1)SC(C)C(=O)N3CCN2 (stereo not given) ?
10.2

Further, for Nc1ncnc(N)c1NC(=O)c1cccc(-c2ccccc2)c1 ?
0.8

Further, for CS(=O)(=O)OCC(CCl)(CCl)CCl ?
3.2

Further, for N#CC(c1ccccc1)N(CCc1ccccc1)C(=O)Oc1ccccc1 (stereo not given) ?
-18.2

Further, for O=C1c2ccccc2C(=O)N1CCNc1ccccc1[N+](=O)[O-] ?
-22.9

Further, for Nc1[nH]c(=O)nc2c1ncn2C1OC(CO)C(O)C1O (stereo not given) ?
-3.65

Further, for CCN(CC)CCCn1cnc2ncccc2c1=O ?
21

Further, for C[N+](C)(CC(=O)Nc1ccc(Cl)cc1)Cc1ccc2c(c1)CCCC2 ?
99
